Values from the supplement of paper PMC9170038

# Tested on: MS2 coat protein
# method-description: apparent KD of MS2 coat protein; designed switch direction (-1 OFF switch, 1 ON switch): -1; higher = weaker reporter binding
# details: input ligand: microRNA oligo, concentration not stated
Measured apparent KD of MS2 coat protein of individual entries
// units = nM; emit number, no label

Some solved cases for reference:
| residue-sequence | unit-text | apparent KD of MS2 coat protein |
| --- | --- | --- |
| CGGUGCUCGUGGAAACAUGAGGAUCACCCAUGUAGAGUUAGCGAGGAUAUCGGUAACACACAUCACGAGAAGGCGCGAACCUGU [Ex NG3 #6] (Eterna round: R96, puzzle: Exclusion NG 3) | nM | 12.1 |
| AGUACUAACACGACAGUGUUAGUACAAUAAGCUUGUGAAACAUGAGGAUCACCCAUGUCCUCAUAAGCUCGUCUUAU [salish99_TOv2_r3_031] (Eterna round: R96, puzzle: Sensor v3, turn-off variant 2) | nM | 431 |
| AGAGAAUACUCAGGAUAUCUGAAUAGAUAGAGAAGAGAAGGGAGACAUGAGGAUCACCCAUGUGAAGUCUUGAGGCUGCAUGGA [Prohibition 24 - Jieux - Exclusion NG 1] (Eterna round: R96, puzzle: Exclusion NG 1) | nM | 85.6 |

### Prompt Using the record for UAAUAAAGGGUAGGAUAUGCCGAACAAACACGAGCAGAAGGACCAAAACACUACUUGAGGAUCACCCAAGUGUCCUUCCGUGGU [Mutated MS2 EX1.6] (Eterna round: R96, puzzle: Exclusion NG 1) , report its apparent KD of MS2 coat protein.
### Response 13.2

### Prompt Requested field: apparent KD of MS2 coat protein. Item: UUUAUAUAGUAAGGAUAUGUAUUAUGUUUAUCAACAGAAGGUACUGACAUGAGGAUCACCCAUGUUUUAGUGUGGGCAUGUAGU [JMF's solution 95] (Eterna round: R96, puzzle: Exclusion NG 1)
### Response 181

### Prompt For the sequence UCUCUUGGGCAAGGAUAUCCUGCGCGGUUCCGGUUCGUGUCUGUCACAUGAGGAUCACCCAUGUGGGAGAAGGUGCCUGCGGUG [Design 75] (Eterna round: R96, puzzle: Exclusion NG 2) , what apparent KD of MS2 coat protein is on record?
### Response 15.8

### Prompt For AGAGAAUACUCAGGAUAUGUGAAUAGAUAGAGAACAGAAGGGAGACAUGAGGAUCACCCAUGUGAAGUCUUGAGGCUGCAUGGA [Prohibition 23 - Jieux - Exclusion NG 1] (Eterna round: R96, puzzle: Exclusion NG 1) , what is its reported apparent KD of MS2 coat protein?
### Response 408

### Prompt Fill blank: measured apparent KD of MS2 coat protein of the sequence ACAAGAGCGGAAGGAUAUUUUACAUGAGGAUCACCCAUGUAAUAAAUGAGGAUCACGGAUGUAGUAAAGAAGGUCCGGAUAAGA [Ostracism 2 - Jieux - Exclusion NG 2] (Eterna round: R96, puzzle: Exclusion NG 2) is ____.
### Response 18.4

### Prompt Looking for the measured apparent KD of MS2 coat protein of AACCUUUAGUUAGGAUAUCGCAUCACCGUCAAGUGAGAAGGGACAUGAGGAUCACCCAUGUCUUCCGUGGGCUACACUGCUUCU [Eternabot solution 5] (Eterna round: R96, puzzle: Exclusion NG 1) , can you help?
### Response 19.4
